// data source = patent US12357581B2

- Method: Solubility of API/dyes with ACA monomers (visual)
- Assay type: physicochemical
- Run Parameters: typically 5.0 mg in 100 ul monomer, 24 h
Reported Endpoint: Solubility of Alpelisib in the monomer (blend)

*Q* State the recorded Solubility of Alpelisib in the monomer (blend) for this entry: C=C(C#N)C(=O)OCCC(C)(C)C [3,3-DMBCA, 3,3-dimethyl-1 butyl cyanoacrylate]
*A* Soluble

*Q* What Solubility of Alpelisib in the monomer (blend) value was documented for this molecule, C=C(C#N)C(=O)OC(C)CCCCC (stereo not drawn) [2-HPCA, 2-heptyl cyanoacrylate] ?
*A* Soluble

###

- System: LLC-PK1
- Method: Alcohol toxicity, MTT cell viability assay, LLC-PK1
- Format: cell-based, porcine
- Run Parameters: 24 h, vs untreated control
Items are presented alongside their recorded Cell activity remaining at 3.00 wt % alcohol (%), LLC-PK1.
Unit % implied. Number only.

*Q* Consider the molecule shown here: CCCCCC(C)O (centres unmarked) [2-heptanol] What is its recorded Cell activity remaining at 3.00 wt % alcohol (%), LLC-PK1?
*A* 81.1

*Q* So what does the record say about Cell activity remaining at 3.00 wt % alcohol (%), LLC-PK1 for CCCCCO [1-pentanol] ?
*A* 83.4

*Q* Look at this molecule and give its reported Cell activity remaining at 3.00 wt % alcohol (%), LLC-PK1. CCC(CC)CO [2-ethylbutanol (control), 2-ethylbutanol, reference compound]
*A* 86.2

*Q* Form field: reported Cell activity remaining at 3.00 wt % alcohol (%), LLC-PK1 of CC(C)CCO [3-methylbutanol]
*A* 94.3

*Q* Endpoint output: Cell activity remaining at 3.00 wt % alcohol (%), LLC-PK1 of CCCCCCCCO [1-octanol (control), 1-octanol, reference compound] . Value?
*A* 1.8

*Q* Please report the recorded Cell activity remaining at 3.00 wt % alcohol (%), LLC-PK1 for CCCCC(O)CC (centres unmarked) [3-heptanol] .
*A* 96.4

Others:
*Q* Please give the measured Cell activity remaining at 3.00 wt % alcohol (%), LLC-PK1 for this molecule: OCCc1ccccc1 [2-phenylethanol]
*A* 1.1

*Q* Using the record for CC(C)(C)CCO [3,3-dimethylbutanol] , report its Cell activity remaining at 3.00 wt % alcohol (%), LLC-PK1.
*A* 98.2

*Q* Given CCCCC(CC)CO (centres unmarked) [2-ethylhexanol] , state its recorded Cell activity remaining at 3.00 wt % alcohol (%), LLC-PK1.
*A* 79.8

*Q* Returns the measured Cell activity remaining at 3.00 wt % alcohol (%), LLC-PK1 for the input molecule. Input: CCCCCCCO [1-heptanol]
*A* 61.8

*Q* For the molecule CCC(O)CC [3-pentanol] , what Cell activity remaining at 3.00 wt % alcohol (%), LLC-PK1 is on record?
*A* 78.6
